These entries and their values trace back to ChEMBL document CHEMBL4340547.

experimental-details: Intrinsic clearance in rat liver microsomes
Type: ADME, Microsome
reported-conditions: read-out: CLH
reported-metric: microsomal CLint (µL/min/mg)

compound	result-unit	microsomal CLint
C[C@@H]1CCC[C@@](O)(CNC(=O)c2c(Cl)ccc3nc(N4CCC(N(C)C)C4)ccc23)C1 (some centres undefined)	µL/min/mg	32

(A) O=C(NCC1CCC(F)(F)CC1)c1c(Cl)ccc2nc(N3CCC(CCO)C3)ccc12 (centres undefined)
(B) CN(C)[C@H]1CCN(c2ccc3c(C(=O)NCC4CCC(F)(F)CC4)c(Cl)ccc3n2)C1
(C) C[C@@H]1CCC[C@@](O)(CNC(=O)c2c(Cl)ccc3nc(N4CC[C@@H](C(C)(C)O)C4)ccc23)C1
Query: Sort the 3 compounds by microsomal CLint; largest first, smallest last. Form entry: ranked labels (order as requested).
Response: A, B, C
(A: 46 µL/min/mg, B: 25 µL/min/mg, C: 10 µL/min/mg)
